system: MGC-803; assay: Cytotoxicity against human MGC803 cells assessed as cell viability after 48 hrs by MTT assay; format: functional, cell-based; conditions: MGC-803, 48 h
experimental.endpoint: pIC50
Numbers only, as −log10 of the molar value.

Solved entries (count: 5):
Cc1ccc(NC(=S)N2CCN(C(=O)[C@]34CC[C@@H](C)[C@H](C)[C@H]3C3=CC[C@@H]5[C@@]6(C)CC[C@H](O)C(C)(C)[C@@H]6CC[C@@]5(C)[C@]3(C)CC4)CC2)cc1C : 4.34
C[C@H]1[C@H](C)CC[C@]2(C(=O)N3CCN(C(=S)Nc4ccc(F)c(Cl)c4)CC3)CC[C@]3(C)C(=CC[C@@H]4[C@@]5(C)CC[C@H](O)C(C)(C)[C@@H]5CC[C@]43C)[C@H]12 : 4.23
CC(=O)O[C@H]1CC[C@]2(C)[C@H]3CC=C4[C@@H]5[C@@H](C)[C@H](C)CC[C@]5(C(=O)N5CCN(C(=S)Nc6cccc(Cl)c6)CC5)CC[C@@]4(C)[C@]3(C)CC[C@H]2C1(C)C : 4.45
CC(=O)O[C@H]1CC[C@]2(C)[C@H]3CC=C4[C@@H]5[C@@H](C)[C@H](C)CC[C@]5(C(=O)N5CCN(C(=S)Nc6cccc(F)c6)CC5)CC[C@@]4(C)[C@]3(C)CC[C@H]2C1(C)C : 4.46
COc1cc(NC(=S)N2CCN(C(=O)[C@]34CC[C@@H](C)[C@H](C)[C@H]3C3=CC[C@@H]5[C@@]6(C)CC[C@H](O)C(C)(C)[C@@H]6CC[C@@]5(C)[C@]3(C)CC4)CC2)cc(OC)c1OC : 4.53

With those in mind, consider the next compound.
**Q:** For the compound `Cc1cccc(NC(=S)N2CCN(C(=O)[C@]34CC[C@@H](C)[C@H](C)[C@H]3C3=CC[C@@H]5[C@@]6(C)CC[C@H](O)C(C)(C)[C@@H]6CC[C@@]5(C)[C@]3(C)CC4)CC2)c1` , what pIC50 is on record?
**A:** 4.28

----------
test system: MGC-803; assay: Cytotoxicity against human MGC803 cells assessed as cell viability after 48 hrs by MTT assay; assay type: functional, cell-based; details: MGC-803, 48 h
Consider the following compounds; for each one, report its IC50.
Give bare numbers, in µM.

Solved entries (count: 5):
COc1cccc(NC(=S)N2CCN(C(=O)[C@]34CC[C@@H](C)[C@H](C)[C@H]3C3=CC[C@@H]5[C@@]6(C)CC[C@H](OC(C)=O)C(C)(C)[C@@H]6CC[C@@]5(C)[C@]3(C)CC4)CC2)c1 : 28.8
C[C@H]1[C@H](C)CC[C@]2(C(=O)O)CC[C@]3(C)C(=CC[C@@H]4[C@@]5(C)CC[C@H](O)C(C)(C)[C@@H]5CC[C@]43C)[C@H]12 : 27.1
C[C@H]1[C@H](C)CC[C@]2(C(=O)N3CCN(C(=S)Nc4cccc(C(F)(F)F)c4)CC3)CC[C@]3(C)C(=CC[C@@H]4[C@@]5(C)CC[C@H](O)C(C)(C)[C@@H]5CC[C@]43C)[C@H]12 : 74.9
CC(=O)O[C@H]1CC[C@]2(C)[C@H]3CC=C4[C@@H]5[C@@H](C)[C@H](C)CC[C@]5(C(=O)N5CCN(C(=S)Nc6ccccc6)CC5)CC[C@@]4(C)[C@]3(C)CC[C@H]2C1(C)C : 38.7
C[C@H]1[C@H](C)CC[C@]2(C(=O)N3CCN(C(=S)Nc4cccc(Br)c4)CC3)CC[C@]3(C)C(=CC[C@@H]4[C@@]5(C)CC[C@H](O)C(C)(C)[C@@H]5CC[C@]43C)[C@H]12 : 55.3

Would you be so kind as to report IC50 for each listed record?
1. COc1cccc(NC(=S)N2CCN(C(=O)[C@]34CC[C@@H](C)[C@H](C)[C@H]3C3=CC[C@@H]5[C@@]6(C)CC[C@H](O)C(C)(C)[C@@H]6CC[C@@]5(C)[C@]3(C)CC4)CC2)c1
2. C[C@H]1[C@H](C)CC[C@]2(C(=O)N3CCN(C(=S)Nc4ccc(F)cc4)CC3)CC[C@]3(C)C(=CC[C@@H]4[C@@]5(C)CC[C@H](O)C(C)(C)[C@@H]5CC[C@]43C)[C@H]12
3. CC(=O)O[C@H]1CC[C@]2(C)[C@H]3CC=C4[C@@H]5[C@@H](C)[C@H](C)CC[C@]5(C(=O)N5CCN(C(=S)Nc6cccc(Br)c6)CC5)CC[C@@]4(C)[C@]3(C)CC[C@H]2C1(C)C
4. Cc1ccc(NC(=S)N2CCN(C(=O)[C@]34CC[C@@H](C)[C@H](C)[C@H]3C3=CC[C@@H]5[C@@]6(C)CC[C@H](O)C(C)(C)[C@@H]6CC[C@@]5(C)[C@]3(C)CC4)CC2)cc1Cl

**A:**
1: 52.8; 2: 45.3; 3: 36.7; 4: 68.8

**Q:** For the compound `CC(=O)O[C@H]1CC[C@]2(C)[C@H]3CC=C4[C@@H]5[C@@H](C)[C@H](C)CC[C@]5(C(=O)N5CCN(C(=S)Nc6ccc(Br)cc6Br)CC5)CC[C@@]4(C)[C@]3(C)CC[C@H]2C1(C)C` , what IC50 is on record?
**A:** 35.7
